System: EKVX
PROTOCOL NOTES: Growth inhibition of human EKVX cells after 48 hrs by sulforhodamine B assay
Format: functional
MEASUREMENT CONTEXT: read-out: pTGI (converted)
Returns one of true (1) or false (0); true (1) when TGI is >= 9 µM.

Example entries begin here.
SMILES STR: COc1ccc(Oc2nc3cc(N)cc(N)c3nc2-c2ccccc2)cc1
TARGET DESC: EKVX
DISCRETE LABEL: true (1)
--
SMILES STR: Nc1cc(N)c2nc(-c3ccccc3)c(Sc3ccc(F)cc3)nc2c1
TARGET DESC: EKVX
DISCRETE LABEL: true (1)
--
SMILES STR: Nc1cc(N)c2nc(-c3ccccc3)c(NCc3ccc(F)cc3)nc2c1
TARGET DESC: EKVX
DISCRETE LABEL: false (0)
--
SMILES STR: Nc1cc(N)c2nc(-c3ccccc3)c(Oc3ccc(Cl)c(Cl)c3)nc2c1
TARGET DESC: EKVX
DISCRETE LABEL: false (0)
--
SMILES STR: COc1ccc(CNc2nc3cc(N)cc(N)c3nc2-c2ccccc2)cc1
TARGET DESC: EKVX
DISCRETE LABEL: true (1)

// switching to the query molecule
Task: TGI >= 9 µM for "COc1ccc(CNc2nc3cc(N)cc(N)c3nc2-c2ccccc2)cc1OC" ?
Result: true (1)

* * *

Test system: A549
PROTOCOL NOTES: Growth inhibition of human A549 cells after 48 hrs by sulforhodamine B assay
Assay type: functional
MEASUREMENT CONTEXT: A549, 48 h
MEASUREMENT KIND: log10(GI50) (log10 of the value in µM)
On a log10 scale: recorded GI50, unit µM.

Study these solved cases before continuing.
SMILES STR: Nc1cc(N)c2nc(-c3ccccc3)c(NCc3ccc(Cl)c(Cl)c3)nc2c1
log10(GI50): 1.03
//
SMILES STR: COc1cc(CNc2nc3cc(N)cc(N)c3nc2-c2ccccc2)cc(OC)c1OC
log10(GI50): 0.63
//
SMILES STR: COc1cc(OC)cc(Oc2nc3cc(N)cc(N)c3nc2-c2ccccc2)c1
log10(GI50): 0.46
//
SMILES STR: Nc1cc(N)c2nc(-c3ccccc3)c(NCc3ccc(F)cc3)nc2c1
log10(GI50): 1.25
//
SMILES STR: COc1ccc(Oc2nc3cc(N)cc(N)c3nc2-c2ccccc2)cc1
log10(GI50): 1.57

Task: I am curious: what log10(GI50) value has been reported for "COc1ccc(Sc2nc3cc(N)cc(N)c3nc2-c2ccccc2)cc1" ?
Result: 1.63

* * *

System: UO-31
PROTOCOL NOTES: Growth inhibition of human UO31 cells after 48 hrs by sulforhodamine B assay
Assay type: functional
MEASUREMENT CONTEXT: UO-31, 48 h
Please note: GI50 exactly at 4 µM is Criterion not met. Only values below 4 µM get Criterion met.

Example entries begin here.
SMILES STR: COc1ccc(CNc2nc3cc(N)cc(N)c3nc2-c2ccccc2)cc1
TARGET DESC: UO-31
DISCRETE LABEL: Criterion not met
//
SMILES STR: COc1ccc(CNc2nc3cc(N)cc(N)c3nc2-c2ccccc2)cc1OC
TARGET DESC: UO-31
DISCRETE LABEL: Criterion not met
//
SMILES STR: COc1ccc(Sc2nc3cc(N)cc(N)c3nc2-c2ccccc2)cc1
TARGET DESC: UO-31
DISCRETE LABEL: Criterion not met
//
SMILES STR: Nc1cc(N)c2nc(-c3ccccc3)c(Sc3ccc(Cl)c(Cl)c3)nc2c1
TARGET DESC: UO-31
DISCRETE LABEL: Criterion met

Task: Hello, I'm reviewing records and need to know if GI50 of "COc1cc(OC)cc(Oc2nc3cc(N)cc(N)c3nc2-c2ccccc2)c1" is below 4 µM. Could you check?
Result: Criterion not met

Task: Hello, I'm reviewing records and need to know if GI50 of "COc1ccc(Oc2nc3cc(N)cc(N)c3nc2-c2ccccc2)cc1" is below 4 µM. Could you check?
Result: Criterion not met

Task: Hello, I'm reviewing records and need to know if GI50 of "COc1cc(CNc2nc3cc(N)cc(N)c3nc2-c2ccccc2)cc(OC)c1OC" is below 4 µM. Could you check?
Result: Criterion not met

Task: Hello, I'm reviewing records and need to know if GI50 of "Nc1cc(N)c2nc(-c3ccccc3)c(NCc3ccc(F)cc3)nc2c1" is below 4 µM. Could you check?
Result: Criterion met

Task: Hello, I'm reviewing records and need to know if GI50 of "Nc1cc(N)c2nc(-c3ccccc3)c(Oc3ccc(F)cc3)nc2c1" is below 4 µM. Could you check?
Result: Criterion not met

Task: Hello, I'm reviewing records and need to know if GI50 of "Nc1cc(N)c2nc(-c3ccccc3)c(Sc3ccc(F)cc3)nc2c1" is below 4 µM. Could you check?
Result: Criterion not met

Task: Hello, I'm reviewing records and need to know if GI50 of "Nc1cc(N)c2nc(-c3ccccc3)c(NCc3ccc(Cl)c(Cl)c3)nc2c1" is below 4 µM. Could you check?
Result: Criterion not met

* * *

Test system: NCI-H522
PROTOCOL NOTES: Growth inhibition of human NCI-H522 cells after 48 hrs by sulforhodamine B assay
Type: functional
MEASUREMENT CONTEXT: NCI-H522, 48 h, read-out: pTGI (converted)
Please note: TGI exactly at 6 µM is Not fulfilled. Only values below 6 µM get Fulfilled.

Example entries begin here.
SMILES STR: Nc1cc(N)c2nc(-c3ccccc3)c(Oc3ccc(F)cc3)nc2c1
DISCRETE LABEL: Not fulfilled
--
SMILES STR: Nc1cc(N)c2nc(-c3ccccc3)c(NCc3ccc(Cl)c(Cl)c3)nc2c1
DISCRETE LABEL: Fulfilled
--
SMILES STR: COc1cc(OC)cc(Oc2nc3cc(N)cc(N)c3nc2-c2ccccc2)c1
DISCRETE LABEL: Fulfilled

Task: Hello, I'm reviewing records and need to know if TGI of "COc1ccc(CNc2nc3cc(N)cc(N)c3nc2-c2ccccc2)cc1" is below 6 µM. Could you check?
Result: Not fulfilled

Task: Hello, I'm reviewing records and need to know if TGI of "COc1ccc(CNc2nc3cc(N)cc(N)c3nc2-c2ccccc2)cc1OC" is below 6 µM. Could you check?
Result: Not fulfilled

Task: Hello, I'm reviewing records and need to know if TGI of "Nc1cc(N)c2nc(-c3ccccc3)c(NCc3ccc(F)cc3)nc2c1" is below 6 µM. Could you check?
Result: Not fulfilled

Task: Hello, I'm reviewing records and need to know if TGI of "Nc1cc(N)c2nc(-c3ccccc3)c(Sc3ccc(F)cc3)nc2c1" is below 6 µM. Could you check?
Result: Not fulfilled

Task: Hello, I'm reviewing records and need to know if TGI of "COc1cc(CNc2nc3cc(N)cc(N)c3nc2-c2ccccc2)cc(OC)c1OC" is below 6 µM. Could you check?
Result: Not fulfilled

Task: Hello, I'm reviewing records and need to know if TGI of "COc1ccc(Oc2nc3cc(N)cc(N)c3nc2-c2ccccc2)cc1" is below 6 µM. Could you check?
Result: Not fulfilled

Task: Hello, I'm reviewing records and need to know if TGI of "Nc1cc(N)c2nc(-c3ccccc3)c(Oc3ccc(Cl)c(Cl)c3)nc2c1" is below 6 µM. Could you check?
Result: Not fulfilled

* * *

Tested on: HOP-92
PROTOCOL NOTES: Growth inhibition of human HOP92 cells after 48 hrs by sulforhodamine B assay
Format: functional
MEASUREMENT CONTEXT: HOP-92, 48 h
MEASUREMENT KIND: log10 GI50 (log10 of the value in µM)
On a log10 scale: recorded GI50, unit µM.

Study these solved cases before continuing.
SMILES STR: Nc1cc(N)c2nc(-c3ccccc3)c(NCc3ccc(F)cc3)nc2c1
log10 GI50: 0.52
//
SMILES STR: COc1ccc(CNc2nc3cc(N)cc(N)c3nc2-c2ccccc2)cc1OC
log10 GI50: 1.13

Task: I am curious: what log10 GI50 value has been reported for "COc1ccc(CNc2nc3cc(N)cc(N)c3nc2-c2ccccc2)cc1" ?
Result: 1.11

Task: I am curious: what log10 GI50 value has been reported for "COc1cc(CNc2nc3cc(N)cc(N)c3nc2-c2ccccc2)cc(OC)c1" ?
Result: 0.06

Task: I am curious: what log10 GI50 value has been reported for "COc1cc(OC)cc(Oc2nc3cc(N)cc(N)c3nc2-c2ccccc2)c1" ?
Result: 0.13

Task: I am curious: what log10 GI50 value has been reported for "COc1cc(CNc2nc3cc(N)cc(N)c3nc2-c2ccccc2)cc(OC)c1OC" ?
Result: 0.08

Task: I am curious: what log10 GI50 value has been reported for "Nc1cc(N)c2nc(-c3ccccc3)c(Oc3ccc(F)cc3)nc2c1" ?
Result: 1.09

Task: I am curious: what log10 GI50 value has been reported for "Nc1cc(N)c2nc(-c3ccccc3)c(Sc3ccc(F)cc3)nc2c1" ?
Result: 1.36
